Every entry's value here was drawn from ChEMBL document CHEMBL4152362.

Experiment: Aqueous thermodynamic solubility of the compound in pH 6.8 solution up to 4 hrs by HPLC-UV analysis
Format: physicochemical
Details: read-out: Therm_solubility
Outcome label depends on solubility thermodynamic at 4 h relative to 20 µg/mL: at/above gives yes, below gives no.

Solved cases (5 shown):
INSERT INTO measurements (substance_smiles, class) VALUES
  ('Cl.Cl.Cn1c(COc2cccc(C(=O)O)c2)nc2ccc(Oc3ccccc3)nc21', 'yes'),
  ('Cc1cccnc1Oc1ccc2nc(COc3cccc(C(=O)O)c3)n(C)c2c1', 'yes'),
  ('Cn1c(COc2cccc(C(=O)O)c2)nc2ccc(Oc3ccc4c(c3)OCC4)nc21', 'no'),
  ('Cc1cccc(Oc2ccc3nc(COc4cccc(C(=O)O)c4)n(C)c3c2)n1', 'yes'),
  ('Cn1c(COc2cccc(C(=O)O)c2)nc2cnc(Oc3ccc(Cl)c(F)c3)cc21', 'no');

We next turn to a different compound, shown below.
Textbook exercise: given the entry Cc1cc(F)cnc1Oc1ccc2nc(COc3cccc(C(=O)O)c3)n(C)c2c1 , state whether its solubility thermodynamic at 4 h is greater than or equal to 20 µg/mL.
no
